The origin of these recorded values is ChEMBL document CHEMBL5034004.

As shown below, each of these compounds has a reported pIC50 value.
Target: 3',5'-cyclic phosphodiesterase
Assay: Inhibition of PDE4 in human U-937 cells assessed as […] in cAMP level by LANCE cAMP Assay
Assay type: cell-based

[
  {
    "COMPOUND": "O=C(O[C@@H](Cc1c(Cl)c[n+]([O-])cc1Cl)c1ccc(OC(F)F)c(OCC2CC2)c1)c1cccc(S(=O)(=O)NC(C(=O)O[C@H]2CN3CCC2CC3)c2ccccc2)c1 (stereo partly drawn)",
    "TEST RESULT": 10
  },
  {
    "COMPOUND": "COc1ccc([C@H](Cc2c(Cl)c[n+]([O-])cc2Cl)OC(=O)c2cccc(CN(C(=O)O[C@H]3CN4CCC3CC4)c3ccccc3)c2)cc1OC",
    "TEST RESULT": 9
  },
  {
    "COMPOUND": "O=C(O[C@@H](Cc1c(Cl)c[n+]([O-])cc1Cl)c1ccc(OC(F)F)c(OCC2CC2)c1)c1cccc(CNC(C(=O)O[C@H]2CN3CCC2CC3)c2ccccc2)c1 (stereo partly drawn)",
    "TEST RESULT": 9.5
  },
  {
    "COMPOUND": "COc1ccc([C@H](Cc2c(Cl)c[n+]([O-])cc2Cl)OC(=O)c2cccc(S(=O)(=O)NC(C(=O)O[C@H]3CN4CCC3CC4)c3ccccc3)c2)cc1OC (stereo partly drawn)",
    "TEST RESULT": 9.6
  },
  {
    "COMPOUND": "COc1ccc([C@H](Cc2c(Cl)c[n+]([O-])cc2Cl)OC(=O)c2cccc(NC(C(=O)O[C@H]3CN4CCC3CC4)c3ccccc3)c2)cc1OC (stereo partly drawn)",
    "TEST RESULT": 9.8
  }
]

Q. Report pIC50 for O=C(O[C@@H](Cc1c(Cl)c[n+]([O-])cc1Cl)c1ccc(OC(F)F)c(OCC2CC2)c1)c1cccc(CN(C(=O)O[C@H]2CN3CCC2CC3)c2ccccc2)c1 tested on 3',5'-cyclic phosphodiesterase.
A. 9.9

Q. Kindly state the measured pIC50 obtained for COc1ccc([C@H](Cc2c(Cl)c[n+]([O-])cc2Cl)OC(=O)c2cccc(CNC(C(=O)O[C@H]3CN4CCC3CC4)c3ccccc3)c2)cc1OC (stereo in doubt; 86a) with 3',5'-cyclic phosphodiesterase.
A. 9.5

Q. Missing value: pIC50, 3',5'-cyclic phosphodiesterase, entry O=C(O[C@@H](Cc1c(Cl)c[n+]([O-])cc1Cl)c1ccc(OC(F)F)c(OCC2CC2)c1)c1cccc(NC(C(=O)O[C@H]2CN3CCC2CC3)c2ccccc2)c1 (stereo partly drawn) . Fill in?
A. 9

---

The listing below reports pKi for molecules tested on Muscarinic acetylcholine receptor M3 (Homo sapiens).
Sequence (P20309 whole entry): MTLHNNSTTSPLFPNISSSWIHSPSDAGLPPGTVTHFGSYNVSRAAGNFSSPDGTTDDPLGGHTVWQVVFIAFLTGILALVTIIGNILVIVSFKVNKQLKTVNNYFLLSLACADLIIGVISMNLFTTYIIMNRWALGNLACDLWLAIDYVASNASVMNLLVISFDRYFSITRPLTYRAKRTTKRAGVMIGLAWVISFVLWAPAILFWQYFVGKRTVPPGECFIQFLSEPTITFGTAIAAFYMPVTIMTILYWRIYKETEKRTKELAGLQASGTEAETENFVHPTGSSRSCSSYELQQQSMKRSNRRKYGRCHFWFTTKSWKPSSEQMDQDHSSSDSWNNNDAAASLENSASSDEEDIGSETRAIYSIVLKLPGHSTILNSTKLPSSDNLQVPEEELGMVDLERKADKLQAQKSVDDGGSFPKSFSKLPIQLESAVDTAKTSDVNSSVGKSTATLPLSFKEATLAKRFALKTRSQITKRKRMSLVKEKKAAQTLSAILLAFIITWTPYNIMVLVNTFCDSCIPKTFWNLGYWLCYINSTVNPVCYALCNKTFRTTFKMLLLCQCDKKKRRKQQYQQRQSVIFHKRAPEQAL
Just the number, please; pKi means minus log10 of the concentration in mol/L.

# count of solved cases: 2
[
  {
    "MOLECULE": "COc1ccc([C@H](Cc2c(Cl)c[n+]([O-])cc2Cl)OC(=O)c2ccc(CN(C)C(C(=O)O[C@H]3CN4CCC3CC4)c3ccccc3)s2)cc1OC (stereo in doubt; 91c)",
    "READOUT KIND": "pKi",
    "TEST RESULT": 9.20
  },
  {
    "MOLECULE": "COc1ccc([C@H](Cc2c(Cl)c[n+]([O-])cc2Cl)OC(=O)c2ccc(CNC(C(=O)OC3C[C@H]4CC[C@H](C3)N4C)c3ccccc3)s2)cc1OC (stereo in doubt; 92d)",
    "READOUT KIND": "pKi",
    "TEST RESULT": 8.00
  }
]

Q. What reported pKi corresponds to COc1ccc([C@H](Cc2c(Cl)c[n+]([O-])cc2Cl)OC(=O)c2ccc(CNC(C(=O)O[C@H]3CN4CCC3CC4)c3ccccc3F)s2)cc1OC (stereo in doubt; 92b) on Muscarinic acetylcholine receptor M3 (Homo sapiens)?
A. 9.80

---

Assay: Antagonist activity at muscarinic M3 receptor in guinea pig trachea assessed as inhibition of carbachol-induced contraction
Assay type: tissue-based, Cavia porcellus
Quick list: pIC50 per entry.

[
  {
    "COMPOUND": "COc1cc([C@H](Cc2c(Cl)c[n+]([O-])cc2Cl)OC(=O)c2ccc(CN(C(=O)O[C@H]3CN4CCC3CC4)c3ccccc3F)s2)ccc1OC(F)F",
    "TEST RESULT": 8.2
  },
  {
    "COMPOUND": "CCOc1cc([C@H](Cc2c(Cl)c[n+]([O-])cc2Cl)OC(=O)c2ccc(CN(C(=O)O[C@H]3CN4CCC3CC4)c3ccccc3F)s2)ccc1OC(F)F",
    "TEST RESULT": 8.3
  },
  {
    "COMPOUND": "COc1ccc([C@H](Cc2c(Cl)c[n+]([O-])cc2Cl)OC(=O)c2ccc(CNC(C(=O)O[C@H]3CN4CCC3CC4)c3ccccc3F)s2)cc1OC (stereo in doubt; 92b)",
    "TEST RESULT": 8.5
  },
  {
    "COMPOUND": "COc1ccc([C@H](Cc2c(Cl)c[n+]([O-])cc2Cl)OC(=O)c2ccc(CN(C(=O)O[C@H]3CN4CCC3CC4)c3ccccc3)cc2)cc1OC",
    "TEST RESULT": 8.7
  },
  {
    "COMPOUND": "COc1ccc([C@H](Cc2c(Cl)c[n+]([O-])cc2Cl)OC(=O)c2cccc(CN(C(=O)O[C@H]3CN4CCC3CC4)c3ccccc3)c2)cc1OC",
    "TEST RESULT": 9.2
  },
  {
    "COMPOUND": "COc1ccc([C@H](Cc2c(Cl)c[n+]([O-])cc2Cl)OC(=O)c2ccc(CN(C(=O)O[C@H]3CN4CCC3CC4)c3ccccc3)cc2F)cc1OC",
    "TEST RESULT": 8.6
  }
]

Q. Fill in the blank: the reported pIC50 of COc1ccc([C@H](Cc2c(Cl)c[n+]([O-])cc2Cl)OC(=O)c2ccc(CN(C(=O)O[C@H]3CN4CCC3CC4)c3ccccn3)s2)cc1OC is ____.
A. 8.7

Q. // lookup pIC50 for COc1ccc([C@H](Cc2c(Cl)c[n+]([O-])cc2Cl)OC(=O)c2ccc(F)c(CN(C(=O)O[C@H]3CN4CCC3CC4)c3ccccc3)c2)cc1OC
A. 9

Q. Need pIC50, item O=C(O[C@@H](Cc1c(Cl)c[n+]([O-])cc1Cl)c1ccc(OC(F)F)c(OCC2CC2)c1)c1ccc(CN(C(=O)O[C@H]2CN3CCC2CC3)c2ccccc2F)s1
A. 8.2

Q. Need pIC50, item COc1ccc([C@H](Cc2c(Cl)c[n+]([O-])cc2Cl)OC(=O)c2ccc(CN(C(=O)O[C@H]3CN4CCC3CC4)c3ccccc3)s2)cc1OC
A. 8.4

Q. Could you tell me which pIC50 is on file for COc1ccc([C@H](Cc2c(Cl)c[n+]([O-])cc2Cl)OC(=O)c2ccc(CN(C(=O)O[C@H]3CN4CCC3CC4)c3cccc(C(F)F)c3)s2)cc1OC ?
A. 8.8

Q. Which value of pIC50 has been reported for O=C(O[C@@H](Cc1c(Cl)c[n+]([O-])cc1Cl)c1ccc(OC(F)F)c(OCC2CC2)c1)c1cccc(CN(C(=O)O[C@H]2CN3CCC2CC3)c2ccccc2)c1 in the records?
A. 6.5

Q. Query (compound): COc1ccc([C@H](Cc2c(Cl)c[n+]([O-])cc2Cl)OC(=O)c2ccc(CNC(C(=O)O[C@H]3CN4CCC3CC4)c3ccccc3)s2)cc1OC (stereo in doubt; 91a) ; field requested: pIC50
A. 8.9

Q. # pIC50 lookup, item COc1ccc([C@H](Cc2c(Cl)c[n+]([O-])cc2Cl)OC(=O)c2cccc(CNC(C(=O)O[C@H]3CN4CCC3CC4)c3ccccc3)c2)cc1OC (stereo in doubt; 89)
A. 9

Q. What measured pIC50 goes with COc1ccc([C@H](Cc2c(Cl)c[n+]([O-])cc2Cl)OC(=O)c2ccc(CN(C(=O)O[C@H]3CN4CCC3CC4)c3ccccc3F)s2)cc1OC ?
A. 9.1

Q. For the compound COc1ccc([C@H](Cc2c(Cl)c[n+]([O-])cc2Cl)OC(=O)c2ccc(CN(C(=O)O[C@H]3CN4CCC3CC4)c3cccc(O)c3)s2)cc1OC , what pIC50 is on record?
A. 9

Q. Please report the recorded pIC50 for COc1ccc([C@H](Cc2c(Cl)c[n+]([O-])cc2Cl)OC(=O)c2ccc(CNC(C(=O)O[C@H]3CN4CCC3CC4)c3ccccc3F)s2)cc1OC (stereo in doubt; 91b) .
A. 8.6

Q. Param item = COc1ccc([C@H](Cc2c(Cl)c[n+]([O-])cc2Cl)OC(=O)c2cccc(CNC(C(=O)O[C@H]3CN4CCC3CC4)c3ccccc3)c2)cc1OC (stereo in doubt; 86a) ; retrieve measured pIC50.
A. 8.2

Q. // pIC50 lookup, key: O=C(O[C@@H](Cc1c(Cl)c[n+]([O-])cc1Cl)c1ccc(OC(F)F)c(OCC2CC2)c1)c1cccc(CNC(C(=O)O[C@H]2CN3CCC2CC3)c2ccccc2)c1 (some centres undefined)
A. 7.6
